system: HepG2 hepatocyte; assay: Measurement of glycogenesis ability (glycogen content, absorbance at 490 nm); assay type: cell-based; conditions: Dosage 100 μg/ml; absorbance at 490 nm; control 0.103
Record form. Attribute: Glycogenesis (absorbance). Fill in for each entry.
Numbers only.

Recorded results for 2 compounds are shown here.
Cc1cccc(NC(=S)NN2CCOCC2)c1 :: 0.325
S=C(Nc1ccccc1)NN1CCOCC1 :: 0.225

Go through the items and report each one's Glycogenesis (absorbance).
1. COc1cccc(NC(=S)NN2CCOCC2)c1
2. S=C(Nc1ccccc1)NN1CCCCC1
3. Cc1ccccc1NC(=S)NN1CCOCC1

1: 0.202; 2: 0.161; 3: 0.238
